Molecular target: N-formyl peptide receptor 3 (Homo sapiens, UniProt P25089)
Sequence (P25089 whole entry): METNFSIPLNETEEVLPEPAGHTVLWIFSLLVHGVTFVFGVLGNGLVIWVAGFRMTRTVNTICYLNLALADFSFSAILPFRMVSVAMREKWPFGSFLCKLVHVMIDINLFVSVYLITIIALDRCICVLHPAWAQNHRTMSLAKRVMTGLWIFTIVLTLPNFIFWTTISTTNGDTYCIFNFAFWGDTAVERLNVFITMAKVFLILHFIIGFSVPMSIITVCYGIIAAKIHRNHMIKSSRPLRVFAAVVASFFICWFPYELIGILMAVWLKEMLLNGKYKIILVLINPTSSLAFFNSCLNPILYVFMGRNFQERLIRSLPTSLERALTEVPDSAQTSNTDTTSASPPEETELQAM
Test: Agonist activity at FPR3 (unknown origin) transfected in human HL60 cells assessed as induction of Ca2+ mobilization
pEC50: −log10 of the molar value.
Would you kindly list pEC50 for each of these molecules?

Please give the measured pEC50 for this molecule: `COc1cccc(Cc2cc(-c3cccs3)nn(CC(=O)Nc3ccc(F)cc3)c2=O)c1`
< 4.30

Please give the measured pEC50 for this molecule: `Cc1cc(Cc2ccccc2)c(=O)n(CC(=O)Nc2ccc(F)cc2)n1`
< 4.30

Please give the measured pEC50 for this molecule: `COc1cccc(Cc2cc(C(C)C)nn(CC(=O)Nc3ccc(Br)cc3)c2=O)c1`
4.76

Please give the measured pEC50 for this molecule: `COc1cccc(Cc2cc(-c3ccc(C)cc3)nn(CC(=O)Nc3ccc4c(c3)OCO4)c2=O)c1`
< 4.30

Please give the measured pEC50 for this molecule: `COc1cccc(Cc2cc(-c3ccc(Cl)cc3)nn(CC(=O)Nc3ccc(F)cc3)c2=O)c1`
< 4.30

----------
Would you kindly list Efficacy for each of these compounds?
Target: fMet-Leu-Phe receptor (Homo sapiens) (UniProt P21462)
Sequence (whole entry): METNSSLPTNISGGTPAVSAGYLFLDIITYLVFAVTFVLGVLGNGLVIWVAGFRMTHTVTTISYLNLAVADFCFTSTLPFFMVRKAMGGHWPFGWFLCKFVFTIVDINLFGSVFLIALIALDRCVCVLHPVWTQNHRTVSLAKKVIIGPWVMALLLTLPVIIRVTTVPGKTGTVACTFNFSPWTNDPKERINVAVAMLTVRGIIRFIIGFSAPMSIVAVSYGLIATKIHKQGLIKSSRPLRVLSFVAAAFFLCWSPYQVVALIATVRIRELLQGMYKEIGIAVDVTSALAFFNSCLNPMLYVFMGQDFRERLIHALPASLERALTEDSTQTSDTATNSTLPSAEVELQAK
Assay: Agonist activity at FPR1 (unknown origin) transfected in human HL60 cells assessed as induction of Ca2+ mobilization relative to fMLF
Format: functional, cell-based
Details: HL-60
Dear colleague, please return just the value in %, with no unit written.

Please give the measured Efficacy for this compound: `Cc1cc(Cc2cccc(Cl)c2)c(=O)n(CC(=O)Nc2ccc(Br)cc2)n1`
100

Please give the measured Efficacy for this compound: `COc1cccc(Cc2cc(C3CCCCC3)nn(CC(=O)Nc3ccc(Br)cc3)c2=O)c1`
80

Please give the measured Efficacy for this compound: `COc1cc(Cc2cc(C)nn(CC(=O)Nc3ccc(I)cc3)c2=O)cc(OC)c1`
80
